- subject_of_test: ZAP-70 (Homo sapiens)
- Construct: endogenous in cells
- protocol_summary: ZAP-70 kinobeads assay
- test_settings: cell lysate
Where a name gives a salt, the structure may show the parent alone.
measured_endpoint: IC50

Prompt: Which IC50 value belongs to COc1ccc(Nc2nc(Nc3cc(OCCO)ccc3Cl)ncc2Cl)c(NS(C)(=O)=O)c1 [Example 111] ?
Completion: 100 to 1000 nM

Prompt: Let us now turn to COc1ccc(Nc2ncc(Cl)c(Nc3ccc(OC)cc3NS(C)(=O)=O)n2)c(O)c1 [Example 41]
Completion: 100 to 1000 nM

Prompt: Quick one: COc1ccc(Nc2nc(Nc3cc(OCC(N)=O)ccc3OC)ncc2Cl)c(NS(C)(=O)=O)c1 [Example 108]
Completion: ≤ 100 nM

Prompt: Also COc1ccc(Nc2nc(Nc3cccc(OCC(C)O)c3C)ncc2Cl)c(NS(C)(=O)=O)c1 (stereo not shown) [Example 93] , if possible.
Completion: 100 to 1000 nM

Prompt: Could you do the same for COc1ccc(Nc2nc(Nc3ccc(C)cc3C)ncc2Cl)c(NS(C)(=O)=O)c1 [Example 59, hydrochloride] , please?
Completion: 100 to 1000 nM

Prompt: Also, COc1ccc(C)c(Nc2ncc(Cl)c(Nc3ccc(OC)cc3NS(C)(=O)=O)n2)c1 [Example 57, hydrochloride] please.
Completion: 100 to 1000 nM

Prompt: Ok, now COc1ccc(Nc2nc(Nc3cccc(OCC(C)(C)O)c3C)ncc2Cl)c(NS(C)(=O)=O)c1 [Example 95]
Completion: ≤ 100 nM

Prompt: Follow-up entry: COc1ccc(Nc2nc(Nc3ccncc3C)ncc2Cl)c(NS(C)(=O)=O)c1 [Example 70]
Completion: ≤ 100 nM

Prompt: Now the compound COc1ccc(Nc2nc(Nc3cccc(OCCF)c3C)ncc2Cl)c(NS(C)(=O)=O)c1 [Example 92]
Completion: 100 to 1000 nM

Prompt: What about this compound? COc1ccc(Nc2nc(Nc3ccc(OC)cc3OC)ncc2Cl)c(NS(C)(=O)=O)c1 [Example 34]
Completion: 100 to 1000 nM

Prompt: Next: COc1ccc(Nc2ncc(F)c(Nc3ccccc3NS(C)(=O)=O)n2)c(OC)c1 [Example 14]
Completion: 1000 to 10000 nM

Prompt: Another compound to look at: COc1ccc(Nc2nc(Nc3cccc(OC)c3OC)ncc2Cl)c(NS(C)(=O)=O)c1 [Example 44]
Completion: 100 to 1000 nM

Prompt: Can you handle COc1ccc(OC)c(Nc2ncc(F)c(Nc3ccccc3NS(C)(=O)=O)n2)c1 [Example 15] next?
Completion: 1000 to 10000 nM

Prompt: Same read-out for COC(=O)CCc1ccc(OC)c(Nc2ncc(Cl)c(Nc3ccc(OC)cc3NS(C)(=O)=O)n2)c1 [Example 115] ?
Completion: 1000 to 10000 nM

Prompt: Can you check COc1ccc(Nc2nc(Nc3cc(OC)ccc3OC)ncc2Br)c(NS(C)(=O)=O)c1 [Example 23] next?
Completion: 100 to 1000 nM

Prompt: Can you handle COc1ccc(Nc2nc(Nc3cc(OCCCN4CCCCC4)ccc3OC)ncc2Cl)c(NS(C)(=O)=O)c1 [Example 2] next?
Completion: ≤ 100 nM

###

- subject_of_test: ZAP-70 (Homo sapiens)
- Construct: endogenous in cells
- Sequence (P43403 1-619): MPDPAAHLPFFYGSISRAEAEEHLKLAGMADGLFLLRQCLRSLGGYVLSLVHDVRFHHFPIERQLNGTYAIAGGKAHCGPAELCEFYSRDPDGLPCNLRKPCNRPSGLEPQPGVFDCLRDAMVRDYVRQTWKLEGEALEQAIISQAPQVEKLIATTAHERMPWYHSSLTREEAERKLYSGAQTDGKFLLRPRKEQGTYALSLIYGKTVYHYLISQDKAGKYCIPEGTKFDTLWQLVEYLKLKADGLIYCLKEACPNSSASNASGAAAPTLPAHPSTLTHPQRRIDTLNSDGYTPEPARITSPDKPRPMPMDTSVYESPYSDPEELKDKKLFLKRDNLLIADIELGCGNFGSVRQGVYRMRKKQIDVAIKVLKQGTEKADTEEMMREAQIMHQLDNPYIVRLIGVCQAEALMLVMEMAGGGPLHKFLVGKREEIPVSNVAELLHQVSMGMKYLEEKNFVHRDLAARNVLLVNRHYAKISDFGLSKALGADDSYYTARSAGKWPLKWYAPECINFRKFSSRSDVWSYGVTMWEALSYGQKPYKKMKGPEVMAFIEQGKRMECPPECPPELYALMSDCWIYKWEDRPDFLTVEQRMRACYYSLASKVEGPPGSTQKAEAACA
- protocol_summary: ZAP-70 kinobeads assay
- test_settings: cell lysate
Structures can show the parent of a compound that is named as a salt.
measured_endpoint: IC50

Example entries and their recorded answers appear below.
* CS(=O)(=O)Nc1ccccc1Nc1nc(Nc2ccccc2F)ncc1Br [Example 17, hydrochloride] | 100 to 1000 nM
* COc1ccc(Nc2nc(Nc3c[nH]c(=O)cc3C)ncc2Cl)c(NS(C)(=O)=O)c1 [Example 82] | 100 to 1000 nM
* COc1ccc(Nc2nc(Nc3ccc(OCCN)cc3OC)ncc2Cl)c(NS(C)(=O)=O)c1 [Example 63] | 100 to 1000 nM

Prompt: If you can, please state the reported IC50 value of COc1ccc(Nc2nc(Nc3cc(OCCO)ccc3OC)ncc2Cl)c(NS(C)(=O)=O)c1 [Example 68] .
Completion: ≤ 100 nM

Prompt: Query COc1ccc(Nc2nc(Nc3cc(OCCO)c(OC)cc3C)ncc2Cl)c(NS(C)(=O)=O)c1 [Example 114] next
Completion: 1000 to 10000 nM
